- Measurement context: 303.15 K; 101.33 kPa; Liquid; Wayne-Kerr 6430B Autobalance Bridge electrode
Quantity measured: electrical conductivity (S/m)
Give bare numbers, in S/m.

Check out these entries, answers already filled in.
Compound	electrical conductivity / S/m
CC(=O)[O-].CCCCn1cc[n+](C)c1 [1-butyl-3-methylimidazolium acetate]	0.0731
CCC(=O)[O-].CCCC[n+]1ccn(C)c1 [3-butyl-1-methyl-1H-imidazolium propanoate]	0.0703
CCCC[n+]1ccn(C)c1.O=C[O-] [3-butyl-1-methyl-1H-imidazolium formate]	0.191

Let us move to another entry and its electrical conductivity.
Record request: electrical conductivity value, item CCCC(=O)[O-].CCCC[n+]1ccn(C)c1 [3-butyl-1-methyl-1H-imidazolium butanoate]
0.041

----------
Could you please report measured viscosity for the items listed next?
- Measurement context: 343.15 K; 101.33 kPa; Liquid; Capillary tube (Ostwald / Ubbelohde) method
Numbers after ± are expanded uncertainties.
Give the number first and the unit second.

Check out these entries, answers already filled in.
Compound	viscosity
CC(=O)[O-].CCCCn1cc[n+](C)c1 [1-butyl-3-methylimidazolium acetate]	35.33 ± 0.44 mPa·s
CCCC[n+]1ccn(C)c1.O=C[O-] [3-butyl-1-methyl-1H-imidazolium formate]	23.94 ± 0.27 mPa·s
CCC(=O)[O-].CCCC[n+]1ccn(C)c1 [3-butyl-1-methyl-1H-imidazolium propanoate]	40.75 ± 0.51 mPa·s

Let us move to another entry and its viscosity.
Record request: viscosity value, item CCCC(=O)[O-].CCCC[n+]1ccn(C)c1 [3-butyl-1-methyl-1H-imidazolium butanoate]
45.43 ± 0.58 mPa·s

----------
Could you please report measured electrical conductivity for the items listed next?
- Measurement context: 313.15 K; 101.33 kPa; Liquid; Wayne-Kerr 6430B Autobalance Bridge electrode
Numbers only, in S/m.

Compound	Quantity measured	Value measured
CCCC(=O)[O-].CCCC[n+]1ccn(C)c1 [3-butyl-1-methyl-1H-imidazolium butanoate]	electrical conductivity	0.0752
CCC(=O)[O-].CCCC[n+]1ccn(C)c1 [3-butyl-1-methyl-1H-imidazolium propanoate]	electrical conductivity	0.12
CCCC[n+]1ccn(C)c1.O=C[O-] [3-butyl-1-methyl-1H-imidazolium formate]	electrical conductivity	0.319

Record request: electrical conductivity value, item CC(=O)[O-].CCCCn1cc[n+](C)c1 [1-butyl-3-methylimidazolium acetate]
0.136

----------
Could you please report measured electrical conductivity for the items listed next?
- Measurement context: 308.15 K; 101.33 kPa; Liquid; Wayne-Kerr 6430B Autobalance Bridge electrode
One number for each entry, in S/m.

Check out these entries, answers already filled in.
Compound	Value measured
CCCC(=O)[O-].CCCC[n+]1ccn(C)c1 [3-butyl-1-methyl-1H-imidazolium butanoate]	0.0558
CC(=O)[O-].CCCCn1cc[n+](C)c1 [1-butyl-3-methylimidazolium acetate]	0.101
CCCC[n+]1ccn(C)c1.O=C[O-] [3-butyl-1-methyl-1H-imidazolium formate]	0.249

Let us move to another entry and its electrical conductivity.
Record request: electrical conductivity value, item CCC(=O)[O-].CCCC[n+]1ccn(C)c1 [3-butyl-1-methyl-1H-imidazolium propanoate]
0.0902

----------
- Measurement context: 333.15 K; 101.33 kPa; Liquid; Capillary tube (Ostwald / Ubbelohde) method
Could you please report measured viscosity for the items listed next?
Answers are plain numbers, in mPa·s.

Check out these entries, answers already filled in.
Molecule	Quantity measured	Units	Value measured
CCCC[n+]1ccn(C)c1.O=C[O-] [3-butyl-1-methyl-1H-imidazolium formate]	viscosity	mPa·s	34
CCC(=O)[O-].CCCC[n+]1ccn(C)c1 [3-butyl-1-methyl-1H-imidazolium propanoate]	viscosity	mPa·s	61.78

Dear colleague, could you please provide viscosity for the molecules listed below?
1. CCCC(=O)[O-].CCCC[n+]1ccn(C)c1 [3-butyl-1-methyl-1H-imidazolium butanoate]
2. CC(=O)[O-].CCCCn1cc[n+](C)c1 [1-butyl-3-methylimidazolium acetate]

1. 69.24
2. 53.43
